Data origin, for the record: patent US20260234157A1

- ASSAY SYSTEM: AR protein (Homo sapiens, UniProt P10275)
- Construct: degradation activity of the compounds disclosed in the present disclosure on AR protein in VCaP cells; host or cells: VCaP
- ASSAY METHOD TEXT: Degradation of AR protein in VCaP cells (Western blot)
- Assay type: cell-based
- TEST CONTEXT: compound at 10 nM, 8 hours, read-out: Degradation rate of the AR protein in VCaP cells, 10 nM (%)
The reader will find reported inhibition at 0.01 µM values listed item by item below.
Give the quantity in %, number only.

Example cases with answers are listed next.
INSERT INTO measurements (molecule, assay_system, meas_value) VALUES
  ('COc1cc(O[C@H]2C(C)(C)[C@H](NC(=O)c3ccc(N4CCC(CN5CCC6(CC5)COc5c6ccc6c5CN(C5CCC(=O)NC5=O)C6=O)(OC)CC4)cc3)C2(C)C)ccc1C#N (stereo partly drawn) [Compound 217]', 'AR protein (Homo sapiens, UniProt P10275)', 49),
  ('COc1cc(O[C@H]2C(C)(C)[C@H](NC(=O)c3ccc(N4CCC(F)(CN5CC6(CCc7ccc8c(c7O6)C(=O)N(C6CCC(=O)NC6=O)C8=O)C5)CC4)cc3)C2(C)C)ccc1C#N (stereo partly drawn) [Compound 274]', 'AR protein (Homo sapiens, UniProt P10275)', 4);

# context switch: different molecule, same inhibition at 0.01 µM
So, N#Cc1ccc(O[C@H]2CC[C@H](NC(=O)c3ccc(N4CCC(F)(CN5CCC6(CC5)COc5c6ccc6c5CN(C5CCC(=O)NC5=O)C6=O)CC4)cn3)CC2)cc1Cl (stereo partly drawn) [Compound 260] ? Its inhibition at 0.01 µM was 15

###

The reader will find reported inhibition at 0.01 µM values listed item by item below.
- ASSAY SYSTEM: AR protein (Homo sapiens, UniProt P10275, T878A)
- Construct: degradation activity of the compounds disclosed in the present disclosure on AR protein in LNCaP cells; host or cells: LNCaP FGC
- Sequence (P10275 1-920 T878A): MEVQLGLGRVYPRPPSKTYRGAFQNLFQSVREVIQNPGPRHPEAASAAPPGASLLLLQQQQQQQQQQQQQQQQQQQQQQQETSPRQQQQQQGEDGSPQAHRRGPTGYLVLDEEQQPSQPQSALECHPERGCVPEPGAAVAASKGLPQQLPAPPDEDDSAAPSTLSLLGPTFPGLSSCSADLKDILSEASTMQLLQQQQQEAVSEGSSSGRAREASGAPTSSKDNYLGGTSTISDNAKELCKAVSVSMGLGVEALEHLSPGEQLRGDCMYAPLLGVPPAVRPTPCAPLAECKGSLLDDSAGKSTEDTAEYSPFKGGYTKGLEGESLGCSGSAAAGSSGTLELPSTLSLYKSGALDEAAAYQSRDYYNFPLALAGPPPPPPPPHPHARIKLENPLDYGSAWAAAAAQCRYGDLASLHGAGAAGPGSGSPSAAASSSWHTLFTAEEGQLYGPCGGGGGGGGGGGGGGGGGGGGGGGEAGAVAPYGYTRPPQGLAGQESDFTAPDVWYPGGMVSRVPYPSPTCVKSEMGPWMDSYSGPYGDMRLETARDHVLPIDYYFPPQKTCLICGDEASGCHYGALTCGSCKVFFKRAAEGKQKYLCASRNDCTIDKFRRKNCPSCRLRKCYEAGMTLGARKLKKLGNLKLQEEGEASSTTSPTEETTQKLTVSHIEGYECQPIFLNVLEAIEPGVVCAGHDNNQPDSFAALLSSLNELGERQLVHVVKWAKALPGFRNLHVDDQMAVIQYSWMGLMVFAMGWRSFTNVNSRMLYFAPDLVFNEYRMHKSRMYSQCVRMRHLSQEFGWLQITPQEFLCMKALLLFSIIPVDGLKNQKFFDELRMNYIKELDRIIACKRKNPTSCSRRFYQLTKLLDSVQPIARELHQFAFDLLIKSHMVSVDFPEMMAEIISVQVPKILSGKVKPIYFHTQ
- ASSAY METHOD TEXT: Degradation of AR protein in LNCaP cells (Western blot)
- Type: cell-based
- TEST CONTEXT: LNCaP cells, compound 10 nM, 8 hours, Western blot grayscale, GAPDH internal reference; read-out: Degradation rates of the AR protein in LNCaP cells, 10 nM (%)
Give the quantity in %, number only.

Example cases with answers are listed next.
INSERT INTO assay_data (molecule, meas_value) VALUES
  ('N#Cc1ccc(O[C@H]2CC[C@H](NC(=O)c3ccc(N4CCC5(CCC(N6CCC7(CCc8cc9c(cc8O7)C(=O)N(C7CCC(=O)NC7=O)C9=O)CC6)CC5)CC4)nn3)CC2)cc1Cl (stereo partly shown)', 28),
  ('COc1cc(O[C@H]2C(C)(C)[C@H](NC(=O)c3ccc(N4CCC(C#N)(CN5CCC6(CC5)COc5c6ccc6c5CN(C5CCC(=O)NC5=O)C6=O)CC4)nn3)C2(C)C)ccc1C#N (stereo partly shown)', 41),
  ('N#Cc1ccc(O[C@H]2CC[C@H](NC(=O)c3ccc(N4CCC5(CCc6cc7c(cc6O5)C(=O)N(C5CCC(=O)NC5=O)C7=O)CC4)nn3)CC2)cc1Cl (stereo partly shown)', 58),
  ('COC1(CN2CC3(CCc4ccc5c(c4O3)C(=O)N(C3CCC(=O)NC3=O)C5)C2)CCN(c2ccc(C(=O)N[C@H]3CC[C@H](Oc4ccc(C#N)c(Cl)c4)CC3)nn2)CC1 (stereo partly shown)', -9);

So, CCOC1(CN2CCC3(CC2)COc2c3ccc3c2C(=O)N(C2CCC(=O)NC2=O)C3=O)CCN(c2ccc(C(=O)N[C@H]3CC[C@H](Oc4ccc(C#N)c(Cl)c4)CC3)nn2)CC1 (stereo partly shown) ? Its inhibition at 0.01 µM was -5

So, N#Cc1ccc(O[C@H]2CC[C@H](NC(=O)c3ccc(N4CCC(N5CCC6(CCc7cc8c(cc7O6)C(=O)N(C6CCC(=O)NC6=O)C8=O)CC5)C(F)(F)C4)nn3)CC2)cc1Cl (stereo partly shown) ? Its inhibition at 0.01 µM was 14

###

- ASSAY SYSTEM: AR protein (Homo sapiens, UniProt P10275, T878A)
- Construct: degradation activity of the compounds disclosed in the present disclosure on AR protein in LNCaP cells; host or cells: LNCaP FGC
- ASSAY METHOD TEXT: Degradation of AR protein in LNCaP cells (Western blot)
- Assay type: cell-based
- TEST CONTEXT: LNCaP cells, compound 100 nM, 8 hours, Western blot grayscale, GAPDH internal reference; read-out: Degradation rates of the AR protein in LNCaP cells, 100 nM (%)
Cut-off 50% on inhibition at 0.1 µM, inclusive. At or above means label 1; below means label 0.

Use the examples below as a reference point.
INSERT INTO assay_data (compound, class_name) VALUES
  ('N#Cc1ccc(O[C@H]2CC[C@H](NC(=O)c3ccc(N4CCC(F)(CN5CCC6(CCc7ccc8c(c7O6)CN(C6CCC(=O)NC6=O)C8=O)CC5)CC4)nn3)CC2)cc1Cl (some centres unmarked)', 'label 0'),
  ('COc1cc(O[C@H]2CC[C@H](NC(=O)c3ccc(N4CCC(CN5CCC6(CC5)COc5c6ccc6c5C(=O)N(C5CCC(=O)NC5=O)C6=O)(OC)CC4)nn3)CC2)ccc1C#N (some centres unmarked)', 'label 1'),
  ('N#Cc1ccc(O[C@H]2CC[C@H](NC(=O)c3ccc(N4CCC(F)(CN5CCC6(CC5)COc5ccc7c(c5C6)C(=O)N(C5CCC(=O)NC5=O)C7)CC4)nn3)CC2)cc1Cl (some centres unmarked)', 'label 0'),
  ('N#Cc1ccc(O[C@H]2CC[C@H](NC(=O)c3ccc(N4CC[C@H](CN5CCC6(CCc7cc8c(cc7O6)C(=O)N(C6CCC(=O)NC6=O)C8=O)CC5)C4)nn3)CC2)cc1Cl (some centres unmarked)', 'label 1');

# input for lookup
Enquiry: Quick check: does N#Cc1ccc(O[C@H]2CC[C@H](NC(=O)c3ccc(N4CCC5(CC4)CC(N4CCC6(CC4)COc4cc7c(cc46)C(=O)N(C4CCC(=O)NC4=O)C7=O)C5)nn3)CC2)cc1Cl (some centres unmarked) have inhibition at 0.1 µM greater than or equal to 50%?
Return: label 1

###

- ASSAY SYSTEM: AR protein (Homo sapiens)
- Construct: degradation activity of the compounds disclosed in the present disclosure on AR protein in VCaP cells; host or cells: VCaP
- Sequence (P10275 1-920): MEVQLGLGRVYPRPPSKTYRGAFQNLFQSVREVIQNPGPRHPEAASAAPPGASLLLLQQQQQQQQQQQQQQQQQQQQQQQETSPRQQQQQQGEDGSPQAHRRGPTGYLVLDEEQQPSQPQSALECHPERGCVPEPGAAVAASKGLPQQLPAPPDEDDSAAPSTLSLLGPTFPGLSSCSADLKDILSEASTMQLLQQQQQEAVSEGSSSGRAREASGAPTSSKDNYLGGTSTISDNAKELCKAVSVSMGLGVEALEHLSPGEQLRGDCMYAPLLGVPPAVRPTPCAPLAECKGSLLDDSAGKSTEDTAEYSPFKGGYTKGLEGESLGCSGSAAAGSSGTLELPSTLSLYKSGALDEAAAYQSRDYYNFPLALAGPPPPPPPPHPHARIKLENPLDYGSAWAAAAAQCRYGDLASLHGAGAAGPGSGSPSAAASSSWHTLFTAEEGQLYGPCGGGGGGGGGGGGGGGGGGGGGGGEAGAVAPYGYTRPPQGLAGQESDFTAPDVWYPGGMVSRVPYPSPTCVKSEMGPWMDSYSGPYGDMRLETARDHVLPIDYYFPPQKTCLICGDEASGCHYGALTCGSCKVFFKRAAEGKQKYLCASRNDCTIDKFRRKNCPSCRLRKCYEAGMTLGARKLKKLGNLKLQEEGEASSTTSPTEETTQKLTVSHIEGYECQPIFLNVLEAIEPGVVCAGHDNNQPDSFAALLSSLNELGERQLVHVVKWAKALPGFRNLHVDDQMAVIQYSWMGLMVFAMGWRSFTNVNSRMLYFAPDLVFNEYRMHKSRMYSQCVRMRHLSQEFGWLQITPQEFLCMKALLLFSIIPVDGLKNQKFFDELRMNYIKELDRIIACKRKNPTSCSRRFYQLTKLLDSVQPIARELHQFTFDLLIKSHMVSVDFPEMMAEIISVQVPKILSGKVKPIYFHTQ
- ASSAY METHOD TEXT: Degradation of AR protein in VCaP cells (Western blot)
- Type: cell-based
- TEST CONTEXT: compound at 100 nM, 8 hours, read-out: Degradation rate of the AR protein in VCaP cells, 100 nM (%)
Cut-off 70% on inhibition at 0.1 µM, inclusive. At or above means Fulfilled; below means Not fulfilled.

Use the examples below as a reference point.
INSERT INTO measurements (molecule, class_name) VALUES
  ('N#Cc1ccc(O[C@H]2CC[C@H](NC(=O)c3ccc(N4CCC(CC5CC5)(CN5CCC6(CC5)COc5c6ccc6c5CN(C5CCC(=O)NC5=O)C6=O)CC4)nn3)CC2)cc1Cl (some centres unmarked) [Compound 211]', 'Not fulfilled'),
  ('CC1(CN2CCC3(CC2)COc2c3ccc3c2CN(C2CCC(=O)NC2=O)C3=O)CCN(c2ccc(C(=O)N[C@H]3CC[C@H](Oc4ccc(C#N)c(Cl)c4)CC3)nc2)CC1 (some centres unmarked) [Compound 259]', 'Fulfilled'),
  ('N#Cc1ccc(O[C@H]2CC[C@H](NC(=O)c3ccc(N4CCC(CN5CC6(CCc7cc8c(cc7O6)C(=O)N(C6CCC(=O)NC6=O)C8)C5)CC4)nn3)CC2)cc1Cl (some centres unmarked) [Compound 8]', 'Fulfilled'),
  ('N#Cc1ccc(O[C@H]2CC[C@H](NC(=O)c3ccc(N4CCC5(CCC(N6CCC7(CC6)COc6c7ccc7c6CN(C6CCC(=O)NC6=O)C7=O)CC5)CC4)nn3)CC2)cc1Cl (some centres unmarked) [Compound 137]', 'Fulfilled'),
  ('CCOC1(CN2CCC3(CC2)COc2c3ccc3c2C(=O)N(C2CCC(=O)NC2=O)C3=O)CCN(c2ccc(C(=O)N[C@H]3CC[C@H](Oc4ccc(C#N)c(C(F)(F)F)c4)CC3)nn2)CC1 (some centres unmarked) [Compound 242]', 'Not fulfilled');

Enquiry: Quick check: does N#Cc1ccc(O[C@H]2CC[C@H](NC(=O)c3ccc(N4CCC5(CCC(N6CCC7(CC6)COc6cc8c(cc67)C(=O)N(C6CCC(=O)NC6=O)C8=O)CC5)CC4)nn3)CC2)cc1Cl (some centres unmarked) [Compound 51] have inhibition at 0.1 µM greater than or equal to 70%?
Return: Fulfilled

Enquiry: Quick check: does N#Cc1ccc(O[C@H]2CC[C@H](NC(=O)c3ccc(N4CCC(O)(CN5CCC6(CC5)COc5c6ccc6c5C(=O)N(C5CCC(=O)NC5=O)C6=O)CC4)nn3)CC2)cc1C(F)(F)F (some centres unmarked) [Compound 214] have inhibition at 0.1 µM greater than or equal to 70%?
Return: Not fulfilled

Enquiry: Quick check: does CCC1(CN2CCC3(CC2)COc2c3ccc3c2CN(C2CCC(=O)NC2=O)C3=O)CCN(c2ccc(C(=O)N[C@H]3CC[C@H](Oc4ccc(C#N)c(Cl)c4)CC3)nn2)CC1 (some centres unmarked) [Compound 236] have inhibition at 0.1 µM greater than or equal to 70%?
Return: Fulfilled

Enquiry: Quick check: does N#Cc1ccc(O[C@H]2CC[C@H](NC(=O)c3ccc(N4CCC5(CC4)CC(N4CCC6(CC4)COc4cc7c(cc4C6)C(=O)N(C4CCC(=O)NC4=O)C7=O)C5)nn3)CC2)cc1Cl (some centres unmarked) [Compound 71] have inhibition at 0.1 µM greater than or equal to 70%?
Return: Not fulfilled

Enquiry: Quick check: does COc1cc(O[C@H]2C(C)(C)[C@H](NC(=O)c3ccc(N4CCC(F)(CN5CC6(CCc7ccc8c(c7O6)C(=O)N(C6CCC(=O)NC6=O)C8=O)C5)CC4)cc3)C2(C)C)ccc1C#N (some centres unmarked) [Compound 274] have inhibition at 0.1 µM greater than or equal to 70%?
Return: Not fulfilled
